- MEASUREMENT TARGET: hNurr1_RXRγFL (NURR1/RXRγ heterodimer) (Homo sapiens, UniProt P43354+P48443)
- Sequence (P43354 328-598): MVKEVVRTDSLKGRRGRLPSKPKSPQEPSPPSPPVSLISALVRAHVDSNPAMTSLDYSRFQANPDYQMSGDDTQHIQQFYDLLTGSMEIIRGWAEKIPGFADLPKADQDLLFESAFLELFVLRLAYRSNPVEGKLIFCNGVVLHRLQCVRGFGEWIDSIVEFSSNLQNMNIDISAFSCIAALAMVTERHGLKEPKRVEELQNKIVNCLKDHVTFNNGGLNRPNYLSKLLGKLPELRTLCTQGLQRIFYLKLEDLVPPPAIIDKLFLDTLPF
- Sequence (P48443 whole entry, the tested form may be a part): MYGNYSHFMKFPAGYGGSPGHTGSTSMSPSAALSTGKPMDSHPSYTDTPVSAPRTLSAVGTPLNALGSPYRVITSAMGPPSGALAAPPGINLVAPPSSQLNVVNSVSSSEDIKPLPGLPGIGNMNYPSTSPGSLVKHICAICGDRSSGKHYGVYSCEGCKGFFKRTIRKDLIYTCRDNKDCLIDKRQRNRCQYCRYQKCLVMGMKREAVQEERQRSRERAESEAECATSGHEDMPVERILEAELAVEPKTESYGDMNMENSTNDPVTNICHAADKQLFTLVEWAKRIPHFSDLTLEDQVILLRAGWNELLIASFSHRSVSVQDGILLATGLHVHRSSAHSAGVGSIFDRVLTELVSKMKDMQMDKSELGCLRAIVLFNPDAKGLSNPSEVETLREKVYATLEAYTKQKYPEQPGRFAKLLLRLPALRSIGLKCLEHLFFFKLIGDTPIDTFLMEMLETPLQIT
- TEST DETAILS: Transactivation assay in Cos-7 cells, NURR-1-Gal4 / RXRγ, luciferase reporter
- CONDITIONS: Cos-7 cells, overnight incubation
Rule for this label: satisfied means EC50 is less than 0.7 µM; not satisfied means EC50 is at least 0.7 µM.

1) O=C(O)c1ccc(Cc2cc3cc(Cl)ccc3n2S(=O)(=O)c2ccc(-c3ccccc3)cc2)cc1; not satisfied
2) CC(C)c1ccc(S(=O)(=O)n2c(Cc3ccc(C(=O)O)cc3)cc3cc(C(F)(F)F)ccc32)cc1; satisfied
3) COC(=O)c1ccc(Cc2c(F)c3cc(C(F)(F)F)ccc3n2S(=O)(=O)c2cccc(C(C)(C)C)c2)cc1; satisfied
4) CC(C)(C)c1cccc(S(=O)(=O)n2c(C(=O)c3ccc(C(=O)O)cc3)cc3cc(C(F)(F)F)ccc32)c1; not satisfied
5) COc1ccc(S(=O)(=O)n2c(Cc3ccc(C(=O)O)cc3)cc3cc(Cl)ccc32)cc1; not satisfied
6) CC(C)(C)c1cccc(S(=O)(=O)n2c(Cc3ccc(-c4n[nH]c(=O)o4)cc3)cc3cc(C(F)(F)F)ccc32)c1; not satisfied
7) CN1CCOc2ccc(S(=O)(=O)n3c(Cc4ccc(C(=O)O)cc4)cc4cc(C(F)(F)F)ccc43)cc21; satisfied
8) CC(C)c1ccc(S(=O)(=O)n2c(Cc3ccc(C(=O)O)c(F)c3)cc3cc(C(F)(F)F)ccc32)cc1; not satisfied
9) C=C(c1ccc(C(=O)O)cc1)c1cc2cc(Cl)ccc2n1S(=O)(=O)c1ccc(C(C)C)cc1; satisfied
10) CC(C)c1cccc(S(=O)(=O)n2c(Cc3ccc(C(=O)O)cc3)cc3cc(N4CCCC4)ccc32)c1; not satisfied
11) O=C(O)c1ccc(Cc2cc3cc(C(F)(F)F)ccc3n2S(=O)(=O)c2ccc(Oc3ccccc3)nc2)cc1; not satisfied
12) Cc1c(Cc2ccc(C(=O)O)cc2)n(S(=O)(=O)c2cccc(C(C)(C)C)c2)c2ccc(C(F)(F)F)cc12; satisfied
13) Cc1c(Cc2cccc(C(=O)O)c2)n(S(=O)(=O)c2cccc(C(C)(C)C)c2)c2ccc(C(F)(F)F)cc12; satisfied
14) O=C(O)c1ccc(Cc2cc3cc(Cl)ccc3n2S(=O)(=O)c2ccc3c(c2)OCCO3)cc1; not satisfied
15) Cc1c(Cc2nc(C(=O)O)cs2)n(S(=O)(=O)c2cccc(C(C)(C)C)c2)c2ccc(C(F)(F)F)cc12; not satisfied
